Below is a list of entries, each paired with its recorded Ratio over Background value.
biological target: T1, Soluble IGF-1R (R&D Systems, Cat. # 391-GR/CF); recombinant human IGF-1R (human, UniProt P08069 31-935); experiment: phage ELISA vs milk
T1 construct: extracellular domain; Eu3+-labelled in the TR-FRET assays; also called sIGF-1R; rhIGF-1R
Positions of bridges follow the written chain, without caps; N, C: chain ends. No end group written: not given here.
Give the quantity in fold, number only.

# example entries with known answers
{"columns": ["binder", "Ratio over Background, fold"],
 "data": [
  ["NSRDGGFYLQLERLLGFPVTG [20E2B-3-D4-IGFR]", 7.9],
  ["RCGRELYHSTFYDWFDRQVAGRTCPS [H2CA-1-A7-IGFR]", 2.2],
  ["RCQGTGFYTCIQELIGFGDPD (disulfide 2-10 (inferred)) [20E2B-4-E9-IGFR]", 5.2]
]}

Moving on to the next binder.
Kindly indicate its recorded Ratio over Background. Item: TLDGGSFEEQFYDWFVRQLSYRTNPD [H2CA-4-G11-IGFR]
9.5
